A set of compounds tested on Sodium-dependent dopamine transporter (Rattus norvegicus), with measured pKi:
Numbers only, as −log10 of the molar value.

{"columns": ["smiles-text", "reported-result"],
 "data": [
  ["COC(=O)[C@H]1[C@@H](c2ccc(C)cc2)C[C@@H]2CC[C@H]1N2C/C=C/I", 7.80]
]}

// lookup pKi for `Cc1ccc([C@H]2C[C@@H]3CC[C@H]([C@H]2C(=O)OCCF)N3C/C=C/I)cc1` 7.92
